tested on: HCI16 (cells of a triple-negative basal-like breast cancer xenograft); assay: cell viability (% of vehicle); higher = less cytotoxic; conditions: 10 µM; 72 h
Catalogue of cell viability values
Measured Attribute: cell viability

{"Compound": "COCCOC(=O)C1=C(C)NC(C)=C(C(=O)OC(C)C)C1c1cccc([N+](=O)[O-])c1 (stereo not drawn)", "Result": 121}
{"Compound": "COC(=O)N=NC=C1C=[N+]([O-])c2ccccc2N1O", "Result": 98.8}
{"Compound": "O=c1[nH]c(=O)n(C2CCCO2)cc1F (stereo not drawn)", "Result": 143}
{"Compound": "COCCCCC(=NOCCN)c1ccc(C(F)(F)F)cc1.O=C(O)C=CC(=O)O [Fluvoxamine maleate]", "Result": 67.7}
{"Compound": "CC(C)c1cc(C(=O)N2Cc3ccc(CN4CCN(C)CC4)cc3C2)c(O)cc1O", "Result": 109}
{"Compound": "Cc1cn(-c2cc(NC(=O)c3ccc(C)c(Nc4nccc(-c5cccnc5)n4)c3)cc(C(F)(F)F)c2)cn1", "Result": 92.1}
{"Compound": "CC(Cc1cc2c(c(C(N)=O)c1)N(CCCO)CC2)NCCOc1ccccc1OCC(F)(F)F (stereo not drawn)", "Result": 117}
{"Compound": "CCc1ccc(CCOc2ccc(CC3SC(=O)NC3=O)cc2)nc1 (stereo not drawn)", "Result": 133}

----------
system: HCI13 (cells of an ER-positive luminal breast cancer xenograft); assay: cell viability (% of vehicle); higher = less cytotoxic; conditions: 10 µM; 72 h
Catalogue of cell viability values

{"Compound": "COc1c(N2CCNC(C)C2)c(F)cc2c(=O)c(C(=O)O)cn(C3CC3)c12 (stereo not drawn)", "cell viability": 82.6}
{"Compound": "Cc1ccc(C(=O)c2cc(O)c(O)c([N+](=O)[O-])c2)cc1", "cell viability": 64.2}
{"Compound": "CC1CCc2cc(F)cc3c(=O)c(C(=O)O)cn1c23 (stereo not drawn)", "cell viability": 117}
{"Compound": "O=C([O-])Cc1ccccc1Nc1c(Cl)cccc1Cl.[K+]", "cell viability": 65.9}
{"Compound": "COc1ccc(C(=O)CC(=O)c2ccc(C(C)(C)C)cc2)cc1", "cell viability": 76.7}
{"Compound": "CC(C)(C)C(=O)OCOP(=O)(COCCn1cnc2c(N)ncnc21)OCOC(=O)C(C)(C)C", "cell viability": 43.6}
{"Compound": "Cn1nnc2c(C(N)=O)ncn2c1=O [Temozolomide]", "cell viability": 122}
{"Compound": "COc1cc(C(=O)O)ccc1NC(=O)C1NC(CC(C)(C)C)C(C#N)(c2ccc(Cl)cc2F)C1c1cccc(Cl)c1F (stereo not drawn)", "cell viability": 60.9}

----------
tested on: UCD52 (cells of a triple-negative basal-like breast cancer xenograft); test: cell viability of combination (% of vehicle); higher = less cytotoxic; conditions: 1 µM; 72 h; partner dose: 10 nM
Catalogue of cell viability of combination values

{"Compound": "CSc1ccc2c(c1)N(CCC1CCCCN1C)c1ccccc1S2.Cl (stereo not drawn) [Thioridazine HCl] + CC(C)C[C@H](NC(=O)[C@H](CCc1ccccc1)NC(=O)CN1CCOCC1)C(=O)N[C@@H](Cc1ccccc1)C(=O)N[C@@H](CC(C)C)C(=O)[C@@]1(C)CO1 [Carfilzomib]", "cell viability of combination": 64.4}
{"Compound": "CCCCc1oc2ccc(NS(C)(=O)=O)cc2c1C(=O)c1ccc(OCCCN(CCCC)CCCC)cc1.Cl [Dronedarone HCl] + CC(C)C[C@H](NC(=O)[C@H](CCc1ccccc1)NC(=O)CN1CCOCC1)C(=O)N[C@@H](Cc1ccccc1)C(=O)N[C@@H](CC(C)C)C(=O)[C@@]1(C)CO1 [Carfilzomib]", "cell viability of combination": 59.9}
{"Compound": "C[C@H]1O[C@@H](O[C@H]2[C@@H](O)C[C@H](O[C@H]3[C@@H](O)C[C@H](O[C@H]4CC[C@@]5(C)[C@H](CC[C@@H]6[C@@H]5C[C@@H](O)[C@]5(C)[C@@H](C7=CC(=O)OC7)CC[C@]65O)C4)O[C@@H]3C)O[C@@H]2C)C[C@H](O)[C@@H]1O [Digoxin] + CC(C)C[C@H](NC(=O)[C@H](CCc1ccccc1)NC(=O)CN1CCOCC1)C(=O)N[C@@H](Cc1ccccc1)C(=O)N[C@@H](CC(C)C)C(=O)[C@@]1(C)CO1 [Carfilzomib]", "cell viability of combination": 16.9}

----------
tested on: WHIM2 (cells of a triple-negative basal-like breast cancer xenograft); experiment: cell viability (% of vehicle); higher = less cytotoxic; conditions: 1 µM; 72 h

{"Compound": "CC(O)C(=O)O.CCOc1ccc2nc3cc(N)ccc3c(N)c2c1.O [Ethacridine lactate monohydrate]", "cell viability": 58.8}
{"Compound": "CCCCCOc1ccc(-c2ccc(-c3ccc(C(=O)N[C@H]4C[C@@H](O)[C@@H](O)NC(=O)[C@@H]5[C@@H](O)[C@@H](C)CN5C(=O)[C@H]([C@@H](C)O)NC(=O)[C@H]([C@H](O)[C@@H](O)c5ccc(O)cc5)NC(=O)[C@@H]5C[C@@H](O)CN5C(=O)[C@H]([C@@H](C)O)NC4=O)cc3)cc2)cc1", "cell viability": 82.8}
{"Compound": "CN1CCC(COc2cnc(-c3cccc(Cn4nc(-c5cccc(C#N)c5)ccc4=O)c3)nc2)CC1", "cell viability": 97.8}
{"Compound": "COc1cc2nccc(Oc3ccc(NC(=O)NC4CC4)c(Cl)c3)c2cc1C(N)=O [Lenvatinib (E7080)]", "cell viability": 83}
{"Compound": "O=C(O)CO.[NH2-].[NH2-].[Pt+2]", "cell viability": 105}
{"Compound": "COc1cc(Nc2ncc(F)c(Nc3ccc4c(n3)N(COP(=O)(O)O)C(=O)C(C)(C)O4)n2)cc(OC)c1OC [Fostamatinib (R788)]", "cell viability": 79}
{"Compound": "COc1ccccc1OCCNCC(O)COc1cccc2[nH]c3ccccc3c12 (configuration not stated)", "cell viability": 91.3}
{"Compound": "Clc1ccc(C(Cn2ccnc2)OCc2ccc(Sc3ccccc3)cc2)c(Cl)c1.O=[N+]([O-])O (configuration not stated) [Fenticonazole Nitrate]", "cell viability": 107}
{"Compound": "COC(=O)NC(C(=O)NC(Cc1ccccc1)C(O)CN(Cc1ccc(-c2ccccn2)cc1)NC(=O)C(NC(=O)OC)C(C)(C)C)C(C)(C)C (configuration not stated)", "cell viability": 91.7}
{"Compound": "CC1(C)CCC(c2ccc(Cl)cc2)=C(CN2CCN(c3ccc(C(=O)NS(=O)(=O)c4ccc(NC(CCN5CCOCC5)CSc5ccccc5)c(S(=O)(=O)C(F)(F)F)c4)cc3)CC2)C1 (configuration not stated)", "cell viability": 66.8}
{"Compound": "CCN1CCN(Cc2ccc(Nc3ncc(F)c(-c4cc(F)c5nc(C)n(C(C)C)c5c4)n3)nc2)CC1.CS(=O)(=O)O", "cell viability": 130}
{"Compound": "C#Cc1cccc(Nc2ncnc3cc(OCCOC)c(OCCOC)cc23)c1.Cl [Erlotinib Hydrochloride]", "cell viability": 50.1}

----------
Catalogue of cell viability values
system: WHIM2; test: cell viability (% of vehicle); higher = less cytotoxic; details: 10 µM; 72 h
Where a name gives a salt, the structure may show the parent alone.
Measured Attribute: cell viability

{"Compound": "CC[N+](CC)(CC)CCOc1cccc(OCC[N+](CC)(CC)CC)c1OCC[N+](CC)(CC)CC.[I-].[I-].[I-] [Gallamine Triethiodide]", "Result": 118}
{"Compound": "OCC(O)CN1CCN(c2ccccc2)CC1 (configuration not stated)", "Result": 99.3}
{"Compound": "CCOC(=O)C(CCc1ccccc1)NC(C)C(=O)N1C(=O)N(C)CC1C(=O)O.Cl (configuration not stated) [Imidapril HCl]", "Result": 105}
{"Compound": "CCN(CC)CCOCCOC(=O)C(CC)(CC)c1ccccc1.O=C(O)CC(O)(CC(=O)O)C(=O)O [Oxeladin Citrate]", "Result": 82.4}
{"Compound": "CC(=O)OC1(C(C)=O)CCC2C3C=C(Cl)C4=CC(=O)C5CC5C4(C)C3CCC21C (configuration not stated) [Cyproterone Acetate]", "Result": 116}
{"Compound": "CCC(=O)OCC(=O)C1(OC(=O)CC)C(C)CC2C3CCC4=CC(=O)C=CC4(C)C3(F)C(O)CC21C (configuration not stated) [Betamethasone Dipropionate]", "Result": 92.3}
{"Compound": "Nc1ccn([C@@H]2O[C@H](CO)[C@@H](O)C2(F)F)c(=O)n1 [Gemcitabine HCl]", "Result": 75.7}

----------
tested on: WHIM2; assay: cell viability (% of vehicle); higher = less cytotoxic; details: 10 µM; 72 h
Friendly reminder: cell viability below 100 is true, at or above is false.

{"Compound": "O=C1CN(/N=C/c2ccc(-c3ccc([N+](=O)[O-])cc3)o2)C([O-])=N1.[Na+] [Dantrolene, sodium salt]", "Classification": "false"}
{"Compound": "COC(=O)C1=C(C)NC(C)=C(C(=O)OC2CCCN(Cc3ccccc3)C2)C1c1cccc([N+](=O)[O-])c1.Cl (stereo not drawn) [Benidipine HCl]", "Classification": "true"}
{"Compound": "CN(C)CCCN1c2ccccc2CCc2ccc(Cl)cc21.Cl [Clomipramine HCl]", "Classification": "true"}
{"Compound": "CC(C)(C)c1ccc(C(O)CCCN2CCC(C(O)(c3ccccc3)c3ccccc3)CC2)cc1 (stereo not drawn)", "Classification": "true"}
{"Compound": "Br.Cc1ccc(Sc2ccccc2N2CCNCC2)c(C)c1", "Classification": "true"}
{"Compound": "CC(C=CC1=C(C)CCCC1(C)C)=CC=CC(C)=CC(=O)O", "Classification": "true"}
{"Compound": "CC1(C)SC2C(NC(=O)C(N)c3ccccc3)C(=O)N2C1C(=O)[O-].[Na+] (stereo not drawn)", "Classification": "true"}
{"Compound": "CCN(Cc1ccncc1)C(=O)C(CO)c1ccccc1 (stereo not drawn) [Tropicamide]", "Classification": "true"}
{"Compound": "CC1(COc2ccc3c(c2)ncn3-c2ccc3cccc(N4CCC(N)CC4)c3n2)COC1", "Classification": "true"}
{"Compound": "COC1=CC(=O)C[C@@H](C)[C@]12Oc1c(Cl)c(OC)cc(OC)c1C2=O", "Classification": "false"}
{"Compound": "Cl.Nc1c2c(nc3ccccc13)CCCC2 [Tacrine hydrochloride]", "Classification": "true"}
{"Compound": "CC(C)(C)Cn1c(N)nc2ccc(-c3[nH]c(C(C)(C)C)nc3-c3ccc(F)cc3)nc21.CS(=O)(=O)O.CS(=O)(=O)O", "Classification": "true"}
{"Compound": "CC(C)(C)NC(=O)C1CC2CCCCC2CN1CC(O)C(Cc1ccccc1)NC(=O)C(CC(N)=O)NC(=O)c1ccc2ccccc2n1.CS(=O)(=O)O (stereo not drawn) [Saquinavir mesylate]", "Classification": "true"}
{"Compound": "COc1ccc(C(=O)c2ccccc2)c(O)c1", "Classification": "false"}
{"Compound": "COc1ccccc1OCC(O)CN1CCN(CC(=O)Nc2c(C)cccc2C)CC1.Cl.Cl (stereo not drawn) [Ranolazine 2HCl]", "Classification": "false"}
{"Compound": "CC(=O)OC1(C(C)=O)CCC2C3C=C(C)C4=CC(=O)CCC4(C)C3CCC21C (stereo not drawn) [Megestrol Acetate]", "Classification": "true"}
{"Compound": "CS(=O)(=O)N1CCN(Cc2cc3nc(-c4cccc5[nH]ncc45)nc(N4CCOCC4)c3s2)CC1", "Classification": "true"}
{"Compound": "NCC(O)c1ccc(O)c(O)c1.O.O=C(O)C(O)C(O)C(=O)O (stereo not drawn) [Noradrenaline bitartrate monohydrate]", "Classification": "true"}
{"Compound": "CCCCCCCCOc1ccccc1C(=O)Nc1ccc(C(=O)OCC[N+](C)(CC)CC)cc1.[Br-] [Otilonium Bromide]", "Classification": "true"}
{"Compound": "COc1c(N2CC3CCCNC3C2)c(F)cc2c(=O)c(C(=O)O)cn(C3CC3)c12.Cl (stereo not drawn) [Moxifloxacin HCl]", "Classification": "true"}
{"Compound": "C=C1C(=CC=C2CCCC3(C)C2CCC3C(C)C=CC(C)C(C)C)CC(O)CC1O (stereo not drawn)", "Classification": "true"}
{"Compound": "COC(=O)C(Cc1ccccc1)NC(=O)C(N)CC(=O)O (stereo not drawn)", "Classification": "false"}
{"Compound": "O=C(NCCO[N+](=O)[O-])c1cccnc1", "Classification": "false"}
{"Compound": "C=C1CCN(C(C)C(O)(Cn2cncn2)c2ccc(F)cc2F)CC1 (stereo not drawn)", "Classification": "true"}
{"Compound": "CC(CCC(=O)O)C1CCC2C3CCC4CC(O)CCC4(C)C3CC(O)C12C (stereo not drawn)", "Classification": "false"}
{"Compound": "CC1=NN(c2ccccc2)C(=O)C1", "Classification": "true"}
{"Compound": "COCCOC(=O)C1=C(C)NC(C)=C(C(=O)OCC=Cc2ccccc2)C1c1cccc([N+](=O)[O-])c1 (stereo not drawn)", "Classification": "true"}
{"Compound": "CC12CCC3c4ccc(O)cc4CCC3C1CCC2O (stereo not drawn)", "Classification": "false"}
